Data origin, for the record: paper PMC9482650

SYSTEM NAME: GORASP1, Q9BQQ3
Sequence (Q9BQQ3 1-208): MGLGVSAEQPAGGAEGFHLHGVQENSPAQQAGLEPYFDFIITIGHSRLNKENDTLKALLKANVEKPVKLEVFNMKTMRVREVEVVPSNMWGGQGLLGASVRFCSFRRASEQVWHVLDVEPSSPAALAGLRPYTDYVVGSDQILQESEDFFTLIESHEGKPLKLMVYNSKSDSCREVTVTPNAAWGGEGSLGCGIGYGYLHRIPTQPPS
TEST NAME: holdup assay
Design: key: below the threshold = too weak to quantify, mostly under pKd 3.1 to 4
PARTICULARS: plain residues with an end cap or a label only (N-terminal biotin on a linker: ado-ado)
TEST READOUT: pKd

Some solved cases for reference:
# BINDER, pKd
records = [
    ("KEKASTETEC [TRPM1, Q7Z4N2]", "below the threshold"),
    ("QQGLLPHSSC [TYRO3, Q06418]", "below the threshold"),
    ("SQDPKKPSRV [CBY2, Q8NA61]", "below the threshold"),
    ("PAALPESTHM [SLC9A3, P48764]", "below the threshold"),
    ("IQISELETNV [SLC1A7, O00341]", "below the threshold"),
]

binder QRYPGNQTTC [CCL24, O00175] , pKd observed: below the threshold

binder KSRPENGTVC [TMEM178B, H3BS89] , pKd observed: below the threshold

binder HLSTRQGTCV [ATRNL1, Q5VV63] , pKd observed: 3.47

binder NKSEPFLTWL [WWTR1, Q9GZV5] , pKd observed: 5

binder RDYTQSSSSL [GRM5, P41594] , pKd observed: below the threshold

binder VYEVPVETKF [SLC26A3, P40879] , pKd observed: below the threshold

binder HDDYFYHDEL [RCN2, Q14257] , pKd observed: below the threshold
